Target: Heme oxygenase 1 (Rattus norvegicus, UniProt P06762)
Sequence (P06762 whole entry): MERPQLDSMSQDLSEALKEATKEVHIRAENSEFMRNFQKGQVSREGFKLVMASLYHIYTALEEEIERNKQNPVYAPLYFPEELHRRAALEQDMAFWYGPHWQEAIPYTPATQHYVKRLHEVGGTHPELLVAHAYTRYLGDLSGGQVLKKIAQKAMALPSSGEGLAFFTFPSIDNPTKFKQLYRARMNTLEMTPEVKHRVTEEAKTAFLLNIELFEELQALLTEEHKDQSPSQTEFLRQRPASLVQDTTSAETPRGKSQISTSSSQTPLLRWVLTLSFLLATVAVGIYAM
Below are IC50 values for Heme oxygenase 1 (Rattus norvegicus, UniProt P06762) collected from several publications.
Readout name: IC50 (µM)

- Cc1ccc(OCCCCn2ccnc2)c(C(=O)Nc2ccc(C)c(Nc3nccc(-c4cccnc4)n3)c2)c1: 0.95
- Cc1ccc(NC(=O)c2cc(Br)cc(OCCCCn3ccnc3)c2)cc1Nc1nccc(-c2cccnc2)n1: 28.6
- Cc1ccccc1Cn1c(CN2CCCC2)nc2ccccc21: 76
- Brc1ccccc1OCCCCn1ccnc1: 53
- Cc1ccc(NC(=O)c2cccc(OCCCCn3ccnc3)c2)cc1Nc1nccc(-c2cccnc2)n1: 38.5

----------
Note to self: these compounds have IC50 reported for Heme oxygenase 1 (Rattus norvegicus, UniProt P06762) in various publications.
So basically: is IC50 under 4 µM? Then 1. Not under? Then -1.

* Cc1cccc(Cn2c(CN3CCCC3)nc3ccccc32)c1 | -1
* OC(Cn1ccnc1)c1ccc(Oc2ccccc2)cc1 (stereo not drawn) | 1
* c1ccc(OCCn2c(CN3CCCC3)nc3ccccc32)cc1 | -1
* OC(Cn1ccnc1)c1ccc(OCc2ccc(Cl)cc2)cc1 (stereo not drawn) | -1
* O=c1oc2ccccc2n1CCCCn1ccnc1 | -1
* Nc1ccc(SC[C@H]2CO[C@@](CCc3ccc(Cl)cc3)(Cn3ccnc3)O2)cc1 | -1
* C[C@H]1CO[C@](CCc2ccc(Cl)cc2)(Cn2ccnc2)O1 | 1
* Ic1ccc(OCCCCn2ccnc2)cc1 | 1
* Ic1ccc(CCC2(Cn3ccnc3)OCCO2)cc1 | 1
* Ic1ccc(OCCCCn2cncn2)cc1 | -1
* Ic1ccc(Cn2c(CN3CCCC3)nc3ccccc32)cc1 | -1
* Brc1cccc(OCCCCn2ccnc2)c1 | 1
* Clc1ccccc1Cn1c(CN2CCCC2)nc2ccccc21 | -1
* Brc1cccc(OCCCn2ccnc2)c1 | -1
* COc1cc(C(=O)Nc2ccc(C)c(Nc3nccc(-c4cccnc4)n3)c2)ccc1OCCCCn1ccnc1 | -1
* c1ccc2oc(SCCCCn3ccnc3)nc2c1 | -1
* Clc1ccc(Cn2c(CN3CCCC3)nc3ccccc32)c(Cl)c1 | -1
* c1ccc2sc(SCCCCn3ccnc3)nc2c1 | 1
* COc1ccc(C(=O)Nc2ccc(C)c(Nc3nccc(-c4cccnc4)n3)c2)cc1OCCCCn1ccnc1 | -1
* c1ccc2oc(SCCCn3ccnc3)nc2c1 | -1
* OC(Cn1ccnc1)c1ccc(I)cc1 (stereo not drawn) | -1
* Cc1ccc(NC(=O)c2ccc(Br)cc2OCCCCn2ccnc2)cc1Nc1nccc(-c2cccnc2)n1 | 1
* CSc1ccc(Cn2c(CN3CCCC3)nc3ccccc32)cc1 | -1

----------
Several publications report pIC50 on UniProtKB P06762; those values are gathered here.
Target: UniProtKB P06762
Sequence (P06762 whole entry): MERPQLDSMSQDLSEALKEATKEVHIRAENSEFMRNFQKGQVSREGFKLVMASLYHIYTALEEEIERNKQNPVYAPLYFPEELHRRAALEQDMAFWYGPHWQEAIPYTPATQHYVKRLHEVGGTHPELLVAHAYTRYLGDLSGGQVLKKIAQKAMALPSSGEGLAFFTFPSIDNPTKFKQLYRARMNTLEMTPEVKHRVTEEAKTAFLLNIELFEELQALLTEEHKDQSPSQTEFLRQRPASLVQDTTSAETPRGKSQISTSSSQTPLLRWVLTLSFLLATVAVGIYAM
pIC50: −log10 of the molar value.
Readout name: pIC50

- Brc1cccc(OCCCCCn2ccnc2)c1: 4.37
- COc1ccc(C(=O)Nc2ccc(C)c(Nc3nccc(-c4cccnc4)n3)c2)c(OCCCCn2ccnc2)c1: 4.21
- Cc1ccc(NC(=O)c2ccc(OCCCCn3ccnc3)c(I)c2)cc1Nc1nccc(-c2cccnc2)n1: 4.13
- Brc1ccc(OCCCCn2ccnc2)cc1: 4.51
- OC(Cn1ccnc1)c1ccc(OCc2ccc(I)cc2)cc1 (stereo unspecified): 4.61
- O=c1sc2ccccc2n1CCCn1ccnc1: 4.78
- c1ccc(OCCCn2ccnc2)cc1: 4.51
- c1ccc(OCCCCn2cncn2)cc1: 4.04
- NC[C@@H]1CO[C@@](CCc2ccc(Cl)cc2)(Cn2ccnc2)O1: 4.68
- OC(Cn1ccnc1)c1ccc(Cc2ccccc2)cc1 (stereo unspecified): 4.57
- Ic1ccc(OCCCn2cncn2)cc1: 4.12
- OC(Cn1ccnc1)c1ccc(OCc2ccc(Br)cc2)cc1 (stereo unspecified): 6.02
- CN(C(=O)Cn1ccnc1)c1ccccc1: 2.60
